All values here come from patent US10940188B2.

- Tested on: ZIKV-induced caspase 3/7 activity in hNPCs
- experiment_notes: Caspase 3/7 activity assay, ZIKV-infected hNPCs
- Format: cell-based
- recorded_conditions: ZIKV-infected hNPCs
Think of 50% as a floor: if Caspase 3 (efficacy, %) NPCs stands on it or above, it is t; beneath it, f.

[[record]]
molecule = "O=C1NC(=O)/C(=C/c2ccc(-c3ccc(F)cc3O)o2)S1 [AS-252424]"
target_desc = "ZIKV-induced caspase 3/7 activity in hNPCs"
class_name = "t"

[[record]]
molecule = "CN1CC(=O)NC1=NC(=O)Nc1cccc(Cl)c1 [Fenobam]"
target_desc = "ZIKV-induced caspase 3/7 activity in hNPCs"
class_name = "t"

[[record]]
molecule = "CN(C)c1ccc(N=NS(=O)(=O)[O-])cc1.[Na+] [Fenaminosulf]"
target_desc = "ZIKV-induced caspase 3/7 activity in hNPCs"
class_name = "f"

[[record]]
molecule = "COc1cccc(NC(=O)/C=C/c2ccc(Cl)cc2)c1 [SB-366791]"
target_desc = "ZIKV-induced caspase 3/7 activity in hNPCs"
class_name = "t"


---

- Tested on: ZIKV-induced caspase 3/7 activity in human astrocytes
- experiment_notes: Caspase 3/7 activity assay, ZIKV-infected human astrocytes
- Type: cell-based
- recorded_conditions: Homo sapiens, Astrocyte, read-out: Caspase 3 (IC50, uM) Astrocyte
reported_property: IC50

[[record]]
structure = "O=S(=O)(O)c1ccc2[nH]c(-c3ccccc3)nc2c1"
result = "1.95 µM"

[[record]]
structure = "COc1cccc2c1C(=O)c1c(O)c3c(c(O)c1C2=O)C[C@@](O)(C(=O)CO)C[C@@H]3O[C@H]1C[C@H](N2CCO[C@H](OC)C2)[C@H](O)[C@H](C)O1"
result = "15.5 µM"


---

Listed next: entries and their corresponding Caspase 3 (efficacy, %) NPCs.
- Tested on: ZIKV-induced caspase 3/7 activity in hNPCs
- experiment_notes: Caspase 3/7 activity assay, ZIKV-infected hNPCs
- Format: cell-based
- recorded_conditions: ZIKV-infected hNPCs
Counter-ions that a name gives are not always drawn.
reported_property: Caspase 3 (efficacy, %) NPCs

[[record]]
molecule = "C/C1=C2/[N-][C@H]([C@H](CC(N)=O)[C@@]2(C)CCC(=O)NC[C@@H](C)OP(=O)([O-])O[C@H]2[C@@H](O)[C@@H](n3cnc4cc(C)c(C)cc43)O[C@@H]2CO)[C@]2(C)N=C(/C(C)=C3N=C(/C=C4N=C1[C@@H](CCC(N)=O)C\\4(C)C)[C@@H](CCC(N)=O)[C@]\\3(C)CC(N)=O)[C@@H](CCC(N)=O)[C@]2(C)CC(N)=O.[Co+3].[OH-] [Hydroxocobalamin]"
reported_property = "Caspase 3 (efficacy, %) NPCs"
readout_number = 67.4

[[record]]
molecule = "Nc1ccc(-c2ccc3ccccc3n2)cc1 [BF-170 hydrochloride]"
reported_property = "Caspase 3 (efficacy, %) NPCs"
readout_number = 92.7

[[record]]
molecule = "Cc1cccc(/C=C/c2ccccc2)n1"
reported_property = "Caspase 3 (efficacy, %) NPCs"
readout_number = 95.2

[[record]]
molecule = "N#C/C(=C\\c1ccc(O)c(O)c1)C(=O)Nc1ccccc1"
reported_property = "Caspase 3 (efficacy, %) NPCs"
readout_number = 72.8

[[record]]
molecule = "O=C1NC(=O)C(=Cc2ccc(-c3ccc(F)cc3)o2)S1"
reported_property = "Caspase 3 (efficacy, %) NPCs"
readout_number = 83.5

[[record]]
molecule = "CC(C)(C)COc1ccc(-n2cc(C(=O)O)cn2)cc1C#N"
reported_property = "Caspase 3 (efficacy, %) NPCs"
readout_number = 67.1

[[record]]
molecule = "CC(=O)Nc1ccc([C@H](C)C(=O)Nc2ncc(C(C)C)s2)cc1"
reported_property = "Caspase 3 (efficacy, %) NPCs"
readout_number = 73.0


---

- Test system: ZIKV-induced caspase 3/7 activity in hNPCs
- experiment_notes: Caspase 3/7 activity assay, ZIKV-infected hNPCs
- Assay type: cell-based
- recorded_conditions: Homo sapiens; ZIKV-infected hNPCs; read-out: Caspase 3 (IC50, uM) NPCs
reported_property: log10 of IC50 (log10 of the value in µM)

[[record]]
compound = "c1ccc2[nH]c(-c3cscn3)nc2c1 [Thiabendazole]"
reported_property = "log10 of IC50"
readout_number = 0.99

[[record]]
compound = "O=C(/C=C/c1ccc(O)cc1)c1ccc(O)cc1O [Isoliquiritigenin]"
reported_property = "log10 of IC50"
readout_number = 0.26

[[record]]
compound = "C/C(O)=C(\\C#N)C(=O)Nc1ccc(C(F)(F)F)cc1 [Teriflunomide]"
reported_property = "log10 of IC50"
readout_number = -0.04

[[record]]
compound = "COc1cccc(-c2ccc(NC(=O)C3=C(C(=O)O)CCC3)c(F)c2)c1 [Vidofludimus]"
reported_property = "log10 of IC50"
readout_number = 0.39

[[record]]
compound = "CN(C)CCCSc1ccccc1NC(=O)/C=C/c1ccccc1 [Cinanserin]"
reported_property = "log10 of IC50"
readout_number = 1.24


---

- System: ZIKV MR766 NS1
- experiment_notes: microbe, parasite or virus in culture
- Assay type: cell-based, Zika virus
- recorded_conditions: Zika virus, HEK293, 48 h, read-out: NS1-IC50
Structures can show the parent of a compound that is named as a salt.
reported_property: IC50 (nM)

[[record]]
molecule = "CS[C@H]1SC[C@H]2C(=O)N(C)[C@@H](C(C)C)C(=O)OC[C@@H](NC(=O)c3cnc4ccccc4n3)C(=O)N[C@@H](C)C(=O)N(C)[C@@H]1C(=O)N(C)[C@@H](C(C)C)C(=O)OC[C@@H](NC(=O)c1cnc3ccccc3n1)C(=O)N[C@@H](C)C(=O)N2C [Echinomycin]"
reported_property = "IC50"
readout_number = 17.4

[[record]]
molecule = "CCC1=C[C@@H]2CN(C1)Cc1c([nH]c3ccccc13)[C@@](C(=O)OC)(c1cc3c(cc1OC)N(C)[C@H]1[C@@](O)(C(=O)OC)[C@H](OC(C)=O)[C@]4(CC)C=CCN5CC[C@]31[C@@H]54)C2 [Vinorelbine tartrate]"
reported_property = "IC50"
readout_number = 270

[[record]]
molecule = "CC(=O)[C@]1(O)Cc2c(O)c3c(c(O)c2[C@@H](O[C@H]2C[C@H](N)[C@H](O)[C@H](C)O2)C1)C(=O)c1ccccc1C3=O [Idarubicin hydrochloride]"
reported_property = "IC50"
readout_number = 168

[[record]]
molecule = "CCC[C@H](Nc1nc(-c2ccc(NC(=O)NCC)c(OC)c2)ncc1C)c1cccnc1 [Lexibulin hydrochloride]"
reported_property = "IC50"
readout_number = 171

[[record]]
molecule = "COC(=O)[C@]12CCC(C)(C)C[C@H]1[C@H]1C(=O)C=C3[C@@]4(C)C=C(C#N)C(=O)C(C)(C)[C@@H]4CC[C@@]3(C)[C@]1(C)CC2 [Bardoxolone methyl]"
reported_property = "IC50"
readout_number = 282


---

- Tested on: ZIKV-induced cell death in hNPCs
- experiment_notes: ATP cell viability assay for ZIKV-induced cell death, hNPCs
- Assay type: cell-based, human
- recorded_conditions: Homo sapiens; ZIKV-infected hNPCs; read-out: Cell viability (IC50, uM) NPCs
Listed next: entries and their corresponding IC50.
reported_property: IC50 (µM)

[[record]]
structure = "O=C(O)c1ccccc1NCCc1ccccc1"
units_symbol = "µM"
readout_number = 7.74

[[record]]
structure = "C[C@H](NC(=O)C(=O)Nc1ccccc1C(C)(C)C)C(=O)N[C@@H](CC(=O)O)C(=O)COc1c(F)c(F)cc(F)c1F"
units_symbol = "µM"
readout_number = 3.88


---

- Test system: ZIKV-induced cell death in SNB-19 cells
- experiment_notes: ATP cell viability assay for ZIKV-induced cell death, SNB-19 cells
- Format: cell-based, human
- recorded_conditions: Homo sapiens; SNB-19 cells; three ZIKV strains MR766, FSS13025, PRVABC59; read-out: IC50 in the cell viability assay
reported_property: IC50

[[record]]
structure = "C[C@H](NC(=O)C(=O)Nc1ccccc1C(C)(C)C)C(=O)N[C@@H](CC(=O)O)C(=O)COc1c(F)c(F)cc(F)c1F"
result = "130 to 900 nM"


---

- Test system: ZIKV-induced caspase 3/7 activity in hNPCs
- experiment_notes: Caspase 3/7 activity assay, ZIKV-infected hNPCs
- Format: cell-based
- recorded_conditions: Homo sapiens; ZIKV-infected hNPCs; read-out: Caspase 3 (IC50, uM) NPCs
reported_property: IC50 (µM)

[[record]]
molecule = "CCC[S+]([O-])c1ccc2[nH]c(NC(=O)OC)nc2c1 (stereo not drawn) [Albendazole oxide]"
reported_property = "IC50"
units_symbol = "µM"
readout_number = 12.3

[[record]]
molecule = "COc1ccc(-c2cc(=S)ss2)cc1"
reported_property = "IC50"
units_symbol = "µM"
readout_number = 13

[[record]]
molecule = "CC(/C=C1\\SC(=S)N(CC(=O)O)C1=O)=C\\c1ccccc1"
reported_property = "IC50"
units_symbol = "µM"
readout_number = 15.5

[[record]]
molecule = "C[C@H](NC(=O)C(=O)Nc1ccccc1C(C)(C)C)C(=O)N[C@@H](CC(=O)O)C(=O)COc1c(F)c(F)cc(F)c1F"
reported_property = "IC50"
units_symbol = "µM"
readout_number = 0.37

[[record]]
molecule = "COc1ccc(-c2coc3cc(O)ccc3c2=O)cc1"
reported_property = "IC50"
units_symbol = "µM"
readout_number = 10.9

[[record]]
molecule = "O=C(Nc1ccc(OC(F)(F)F)cc1)c1sccc1NCc1ccnc2ccccc12"
reported_property = "IC50"
units_symbol = "µM"
readout_number = 6.9

[[record]]
molecule = "O=C(Oc1ccccc1)c1cccc(C(=O)Oc2ccccc2)c1 [Diphenyl isophthalate]"
reported_property = "IC50"
units_symbol = "µM"
readout_number = 4.47

[[record]]
molecule = "O=C(c1ccccc1)c1ccc2n1CCC2C(=O)O (stereo not drawn)"
reported_property = "IC50"
units_symbol = "µM"
readout_number = 10.3

[[record]]
molecule = "O=C(O)c1cc([N+](=O)[O-])ccc1NCCCc1ccccc1"
reported_property = "IC50"
units_symbol = "µM"
readout_number = 8.69

